- target.under.test: Solute carrier organic anion transporter family member 1B1 (Homo sapiens, UniProt Q9Y6L6)
- Sequence (Q9Y6L6 whole entry): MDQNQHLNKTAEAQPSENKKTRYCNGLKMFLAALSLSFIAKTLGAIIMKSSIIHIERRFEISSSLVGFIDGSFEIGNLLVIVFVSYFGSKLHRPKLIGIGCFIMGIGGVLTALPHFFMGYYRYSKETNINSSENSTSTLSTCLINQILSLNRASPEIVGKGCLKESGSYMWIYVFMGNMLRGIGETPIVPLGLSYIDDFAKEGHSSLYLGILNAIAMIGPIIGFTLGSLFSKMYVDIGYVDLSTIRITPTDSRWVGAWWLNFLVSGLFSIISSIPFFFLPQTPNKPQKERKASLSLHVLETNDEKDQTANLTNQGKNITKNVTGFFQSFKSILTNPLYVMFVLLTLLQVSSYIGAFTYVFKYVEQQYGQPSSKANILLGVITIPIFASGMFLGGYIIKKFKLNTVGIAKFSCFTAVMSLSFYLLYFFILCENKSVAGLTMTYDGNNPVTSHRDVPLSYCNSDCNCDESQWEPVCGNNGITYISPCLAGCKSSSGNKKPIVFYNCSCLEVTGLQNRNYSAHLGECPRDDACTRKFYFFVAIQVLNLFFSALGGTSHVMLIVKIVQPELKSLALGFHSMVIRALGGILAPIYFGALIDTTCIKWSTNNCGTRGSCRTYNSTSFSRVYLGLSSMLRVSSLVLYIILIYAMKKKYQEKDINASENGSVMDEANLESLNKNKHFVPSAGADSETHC
- condition.notes: chinese hamster, cho, 10 µM
Task for the reader: assign each of the following compounds its reported residual activity.
Give me the value, and tack the unit on after it.

Prompt: # input compound: C=CCCCCCCCCCCCC(O)CC(O)CO (stereo in doubt; form 2) [AVOCADENE] ; wanted: its residual activity
Response: 99.03%

Prompt: Again, but for C[N+](C)(C)CCCCCC[N+](C)(C)C.[Br-].[Br-] [HEXAMETHONIUM BROMIDE]
Response: 76.07%

Prompt: Again, but for CC(=O)O[C@H]1C[C@@H](OC(C)=O)C(C)(C)[C@@H]2C[C@@H](OC(C)=O)[C@]3(C)[C@H](CC[C@@]4(C)[C@H](c5ccoc5)OC(=O)[C@H]5O[C@@]534)[C@@]12C [KHIVORIN]
Response: 77.22%

Prompt: Again, but for CC(=O)O[C@H]1C[C@H](O[C@H]2[C@@H](O)C[C@H](O[C@H]3[C@@H](O)C[C@H](O[C@H]4CC[C@@]5(C)[C@H](CC[C@@H]6[C@@H]5C[C@@H](O)[C@]5(C)[C@@H](C7=CC(=O)OC7)CC[C@]65O)C4)O[C@@H]3C)O[C@@H]2C)O[C@H](C)[C@H]1O[C@@H]1O[C@H](CO)[C@@H](O)[C@H](O)[C@H]1O [LANATOSIDE C]
Response: 102.5%

Prompt: Again, but for "CCCCCCCCCCCC[C@@H](C(=O)O)[C@H](C)C(=O)O"
Response: 76.63%

Prompt: Again, but for COC(=O)c1c(C)c2c(c(C)c1O)OC(=O)c1c(C)c(Cl)c(O)c(Cl)c1O2 [LEOIDIN]
Response: 7.804%

Prompt: Again, but for O=C1NS(=O)(=O)c2ccccc21 [SACCHARIN]
Response: 112.4%

Prompt: Again, but for Cn1cc[nH]c1=S [METHIMAZOLE]
Response: 111.7%

Prompt: Again, but for COc1ccccc1-c1cc(=O)c2cccc(OC)c2o1 [8,2'-DIMETHOXYFLAVONE]
Response: 107.3%

Prompt: Again, but for CC(C)=CCc1c2c(c3occ(-c4ccc(O)cc4)c(=O)c3c1O)C=CC(C)(C)O2 [OSAJIN]
Response: 112.9%

Prompt: Again, but for N=C(N)NCCCCNC(=N)N.O=S(=O)(O)O [ARCAINE SULFATE]
Response: 78.37%

Prompt: Again, but for COc1ccc(C2C(=O)c3ccccc3C2=O)cc1 [ANISINDIONE]
Response: 74.63%

Prompt: Again, but for COc1cc([S+](C)[O-])ccc1-c1nc2ncccc2[nH]1 (configuration not stated) [SULMAZOLE]
Response: 107.4%

Prompt: Again, but for Oc1ccc(Cl)c2cccnc12 [CLOXYQUIN]
Response: 104%

Prompt: Again, but for CCOP(=S)(OCC)Oc1nc(Cl)c(Cl)cc1Cl [CHLORPYRIFOS]
Response: 140%

Prompt: Again, but for CC(=O)NCCc1c[nH]c2ccc(O)cc12 [ACETYLSEROTONIN]
Response: 100.7%

Prompt: Again, but for Cn1c([N+](=O)[O-])cnc1COC(N)=O [RONIDAZOLE]
Response: 103.6%

----------
Task for the reader: assign each of the following compounds its reported residual activity.
- target.under.test: UniProt:Q9NPD5
- Sequence (Q9NPD5 whole entry): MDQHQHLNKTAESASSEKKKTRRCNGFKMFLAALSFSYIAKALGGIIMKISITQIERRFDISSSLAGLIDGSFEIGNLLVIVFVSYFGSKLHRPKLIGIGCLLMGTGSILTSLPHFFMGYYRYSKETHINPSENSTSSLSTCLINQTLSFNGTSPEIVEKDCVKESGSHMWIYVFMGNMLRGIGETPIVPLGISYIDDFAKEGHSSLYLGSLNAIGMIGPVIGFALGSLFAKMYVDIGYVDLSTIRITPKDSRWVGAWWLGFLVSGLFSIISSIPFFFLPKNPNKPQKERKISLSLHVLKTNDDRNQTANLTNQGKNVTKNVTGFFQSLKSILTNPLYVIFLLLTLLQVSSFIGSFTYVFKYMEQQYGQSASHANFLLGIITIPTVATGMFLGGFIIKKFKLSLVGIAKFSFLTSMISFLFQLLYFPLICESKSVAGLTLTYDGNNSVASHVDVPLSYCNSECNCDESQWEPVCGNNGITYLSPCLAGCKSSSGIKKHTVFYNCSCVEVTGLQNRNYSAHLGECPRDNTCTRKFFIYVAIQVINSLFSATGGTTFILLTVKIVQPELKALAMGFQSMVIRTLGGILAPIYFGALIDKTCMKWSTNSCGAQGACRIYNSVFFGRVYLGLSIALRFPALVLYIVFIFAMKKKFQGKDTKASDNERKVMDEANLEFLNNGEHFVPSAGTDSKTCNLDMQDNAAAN
- condition.notes: chinese hamster, cho, 10 µM
I only need the number, in %, no unit after it.

Prompt: # input compound: O=C1C=C(O)C(=O)c2ccccc21 [LAWSONE] ; wanted: its residual activity
Response: 101.6

Prompt: Again, but for CC(CN1c2ccccc2Sc2ccccc21)N(C)C.Cl (configuration not stated) [PROMETHAZINE HYDROCHLORIDE]
Response: 86.93

Prompt: Again, but for C[C@]12C=CC(=O)C=C1CC[C@@H]1[C@@H]2[C@@H](O)C[C@@]2(C)[C@H]1CC[C@]2(O)C(=O)CO [PREDNISOLONE]
Response: 110.4

Prompt: Again, but for Nc1c2c(nc3ccccc13)CCCC2O.O=C(O)/C=C\C(=O)O (configuration not stated) [VELNACRINE MALEATE]
Response: 96.75

Prompt: Again, but for CC(=O)O[C@@](C)(CCC=C(C)C)C1CC=C(C)CC1 (some centres not stated) [BISABOLOL ACETATE]
Response: 92.66

Prompt: Again, but for Nc1cc(N2CCCCC2)nc(N)[n+]1[O-] [MINOXIDIL]
Response: 92.39

Prompt: Again, but for C[C@]12C=CC(=O)C=C1CC[C@H]1[C@@H]3C[C@@H](O)[C@](O)(C(=O)CO)[C@@]3(C)C[C@H](O)[C@@]12F [TRIAMCINOLONE]
Response: 81.81

Prompt: Again, but for Cl.N[C@H]1C(O)O[C@H](CO)[C@@H](O)[C@@H]1O (some centres not stated) [GLUCOSAMINE HYDROCHLORIDE]
Response: 87.62

Prompt: Again, but for O=C1c2c(O)cccc2Cc2cccc(O)c21 [ANTHRALIN]
Response: 90.63

Prompt: Again, but for CC(C)(C)CC(C)(C)c1ccc(O)c(Cc2ccc(Cl)cc2Cl)c1 [CLOFOCTOL]
Response: 76.53

Prompt: Again, but for C=C1[C@@H]([C@@]2(C)[C@@H](OC(C)=O)CC(=O)O[C@](C)(COC(C)=O)[C@@H]2C(=O)OC)[C@@H](OC=O)[C@H](OC(=O)[C@H](O)[C@H](C)CC)[C@@]2(C)[C@H](c3ccoc3)CC(=O)[C@]12O [PRIEURIANIN]
Response: 25.49

Prompt: Again, but for CC(=O)O[C@@H]1[C@H]2CC[C@H]3[C@@](C)(O)[C@@H]4C[C@H](O)C(C)(C)[C@@]4(O)[C@H](O)C[C@@]13C[C@@]2(C)O [GRAYANOTOXIN I]
Response: 95.98

Prompt: Again, but for CCN(CC)CCOC(=O)c1ccc(N)cc1.Cl [PROCAINE HYDROCHLORIDE]
Response: 104.2

Prompt: Again, but for Cc1coc2ccccc2c1=O [METHYLCHROMONE]
Response: 92.21

Prompt: Again, but for O=C(O)/C=C/C=C/c1ccccc1 [JUAREZIC ACID]
Response: 88.74

Prompt: Again, but for OC[C@@H](O)[C@@H](O[C@@H]1O[C@H](CO)[C@@H](O)[C@H](O)[C@H]1O)[C@H](O)[C@@H](O)CO [GLUCITOL-4-GUCOPYANOSIDE]
Response: 90.65

Prompt: Again, but for CNC(=O)CSP(=S)(OC)OC [DIMETHOATE]
Response: 114.1

----------
- target.under.test: Solute carrier organic anion transporter family member 1B1 (Homo sapiens)
- condition.notes: chinese hamster, cho, 10 µM
endpoint.name: residual activity (%)
I only need the number, in %, no unit after it.

Prompt: # input compound: "CCCCCCCCCCCC1=C(O)C(=O)C=C(O)C1=O" ; wanted: its residual activity
Response: 98.02

Prompt: Again, but for "CC(=O)OCC(=O)[C@@]1(O)CC[C@H]2[C@@H]3CC[C@@H]4C[C@H](O)CC[C@]4(C)[C@H]3C(=O)C[C@@]21C"
Response: 81.64

Prompt: Again, but for "CC1=C2[C@H]3OC(=O)[C@@H](C)[C@@H]3CC[C@@]2(C)C=CC1=O"
Response: 108.9

Prompt: Again, but for CC(=O)OCC1=C(C(=O)[O-])N2C(=O)[C@@H](NC(=O)Cc3cccs3)[C@H]2SC1.[Na+] [CEPHALOTHIN SODIUM]
Response: 45.11

Prompt: Again, but for "O=c1c(-c2ccc(O)cc2)coc2cc(O)ccc12"
Response: 139.3

Prompt: Again, but for "O=c1cccc2n1C[C@@H]1C[C@H]2CN2CCCC[C@H]12.[O-][Cl+3]([O-])([O-])O"
Response: 88.32

Prompt: Again, but for "CS(C)(=O)=O"
Response: 115.1

Prompt: Again, but for "COC(=O)[C@@]1(C)CCC[C@]2(C)c3ccc(O)c(C(C)C)c3CC[C@@H]12"
Response: 90.51

Prompt: Again, but for "O=c1c(O)cc([C@H]2Oc3cc(O)cc(O)c3C[C@H]2O)cc2c([C@H]3Oc4cc(O)cc(O)c4C[C@H]3O)cc(O)c(O)c12"
Response: 53

Prompt: Again, but for CC[C@@]1([C@H]2O[C@H]([C@H]3O[C@@](O)(CO)[C@H](C)C[C@@H]3C)C[C@H]2C)CC[C@H]([C@@]2(C)CC[C@]3(C[C@H](O)[C@@H](C)[C@@H]([C@H](C)[C@H](OC)[C@@H](C)C(=O)[O-])O3)O2)O1.[Na+] [MONENSIN SODIUM]
Response: 78.11

Prompt: Again, but for "CC1(C)CC[C@]2(C(=O)O)[C@H](O)C[C@]3(C)C(=CC[C@@H]4[C@@]5(C)CC[C@H](O)C(C)(C)[C@@H]5CC[C@]43C)[C@@H]2C1"
Response: 69.3

Prompt: Again, but for C[N+]1(C)CCCC(OC(=O)C(O)(c2ccccc2)c2ccccc2)C1.[Br-] (stereo unspecified) [MEPENZOLATE BROMIDE]
Response: 121.8

Prompt: Again, but for "CCCSc1ccc2nc(NC(=O)OC)[nH]c2c1"
Response: 102.7

Prompt: Again, but for "COc1ccc(/C=C/c2cc(O)cc(O[C@@H]3O[C@H](CO)[C@@H](O)[C@H](O)[C@H]3O)c2)cc1O"
Response: 166.2

Prompt: Again, but for CC(=O)NC(C(=O)O)C(C)(C)SN=O (stereo unspecified)
Response: 73.57

Prompt: Again, but for CCc1ccc(CCOc2ccc(CC3SC(=O)NC3=O)cc2)nc1.Cl (stereo unspecified) [PIOGLITAZONE HYDROCHLORIDE]
Response: 122.7

Prompt: Again, but for CCN(CC)C(=O)N1CCN(C)CC1.O=C(O)CC(O)(CC(=O)O)C(=O)O [DIETHYLCARBAMAZINE CITRATE]
Response: 95.54

Prompt: Again, but for Cc1c(C(N)=O)cc([N+](=O)[O-])cc1[N+](=O)[O-] [DINITOLMIDE]
Response: 98.02

Prompt: Again, but for "CC[C@@H](C)C(=O)O[C@H]1[C@H](O)[C@H]2[C@@H](CN3C[C@@H](C)CC[C@H]3[C@@]2(C)O)[C@@H]2C[C@]34O[C@]5(O)[C@@H](OC(=O)[C@](C)(O)[C@@H](C)O)CC[C@@]3(C)[C@@H]5[C@@H](OC(C)=O)[C@@H](OC(C)=O)[C@H]4[C@@]21O"
Response: 114.4

Prompt: Again, but for "CN1C(C(=O)Nc2ccccn2)=C(O)c2sccc2S1(=O)=O"
Response: 78.82

Prompt: Again, but for "COc1ccc([C@@H]2CC(=O)c3c(O)cc(O)cc3O2)cc1O"
Response: 98.42

Prompt: Again, but for CO[C@H]1[C@H](O)[C@H](O[C@H]2CC[C@@]3(C=O)[C@H](CC[C@@H]4[C@@H]3CC[C@]3(C)[C@@H](C5=CC(=O)OC5)CC[C@]43O)C2)O[C@@H](C)[C@@H]1O [PERUVOSIDE]
Response: 62.43

Prompt: Again, but for "[H]/N=C(/N)NS(=O)(=O)c1ccc(N)cc1"
Response: 119.2

Prompt: Again, but for COc1ccc2c(c1)OCc1c-2oc2cc(OC)ccc12 [DEHYDROVARIABILIN]
Response: 136.9

Prompt: Again, but for "COc1ccc(-c2cc(=O)c3ccccc3o2)cc1OC"
Response: 187.6

Prompt: Again, but for "COc1ccc(/C=C/C(=O)Nc2ccccc2C(=O)O)cc1OC"
Response: 55.59

Prompt: Again, but for CN(C)CCCN1c2ccccc2CCc2ccccc21.Cl [IMIPRAMINE HYDROCHLORIDE]
Response: 61.55

Prompt: Again, but for "COc1cc2c(cc1O)CCN[C@@H]2C"
Response: 86.65

Prompt: Again, but for "CCOC(N)=O"
Response: 109.1

Prompt: Again, but for "COc1cc(C(C)=O)cc(OC)c1O"
Response: 104.7

Prompt: Again, but for "CC(C)(C)CC(C)(C)c1ccc(O)c(Cc2ccc(Cl)cc2Cl)c1"
Response: 77.9
